Assayed target: UniProt:P0DTD1
Type: biochemical
Design: unit not given here
Measurement setup: Conc 15 µM; mean response (inhibition) of dose-response curve
Answer each item with its documented Avg.

Solved entries (count: 3):
# Molecule, Avg
rows = [
    ("CC1C(=O)Nc2ccc(C(=O)CCl)cc21 (stereo not drawn)", 12.3),
    ("Cc1cc(C(=O)CCl)c(C)n1-c1ncn[nH]1", 51.1),
    ("O=C(CCl)N1CCN(Cc2ccsc2)CC1", 16.7),
]

// each listed molecule needs a value for Avg
1. C=CS(=O)(=O)c1nc2ccccc2s1
2. N#Cc1ccnc(S)c1

stdout:
1: 84.2; 2: 33.9

// each listed molecule needs a value for Avg
1. CSc1cc(C(=O)CCl)ccc1NC(C)=O
2. CN(c1ccc(C(=O)CCl)cc1)S(C)(=O)=O

stdout:
1. 32
2. 48.1

====

Assayed target: SARS-CoV-2 3CL protease (Severe acute respiratory syndrome coronavirus 2, UniProt P0DTD1)
Experimental protocol: biochemical
Measurement setup: SARS-CoV-2 3CLpro IC50
Attribute measured: IC50
Please state the number and follow it with the unit.

stdin: Given the entry O=C(Oc1cncc(Cl)c1)c1cccs1 [MAC-5576, reference compound] , report its measured IC50.
stdout: 10 nM

====

Answer each item with its documented Avg.
Assayed target: SARS-CoV-2 3CL protease (Severe acute respiratory syndrome coronavirus 2, UniProt P0DTD1)
Format: biochemical
Set-up: unit not given here
Measurement setup: Conc 200 µM; average response of dose-response curve
Numbers only.

Solved entries (count: 3):
# Smiles, Avg
data = [
    ("O=C(CCl)N1CCN(Cc2cccs2)CC1", 93),
    ("O=C(CCl)N1CCN(c2ccccc2[N+](=O)[O-])CC1", 97.6),
    ("CN1Cc2cc(C(=O)CCl)ccc2NC1=O", 102.1),
]

// each listed compound needs a value for Avg
1. O=C(NCCc1ccc(F)cc1)n1ccnc1
2. Cc1ccccc1CN1CCN(C(=O)CCl)CC1
3. O=C(NCCC1=CCOCC1)c1cccnc1S
4. O=C(c1ccc(S)nc1)N1CCCC1
5. Nc1nccnc1S

stdout:
1: 102.1; 2: 98.1; 3: 100.4; 4: 116.6; 5: 82.9

====

Assayed target: UniProt:P0DTD1
Type: biochemical
Set-up: unit not given here
Measurement setup: Conc 20 µM; average response of dose-response curve
Answer each item with its documented Avg.
One number for each entry.

Solved entries (count: 5):
# Compound, Assayed target, Attribute measured, Value reported
records = [
    ("Cc1cnccc1CCNC(=O)c1cccnc1S [Z1515958452]", "UniProt:P0DTD1", "Avg", 25.7),
    ("N#C/C=C/S(=O)(=O)c1ccc(Cl)cc1 [Z1649581806]", "UniProt:P0DTD1", "Avg", 66.2),
    ("O=C(c1ccc(S)nc1)N1CCCC1 [Z235362941]", "UniProt:P0DTD1", "Avg", 31.4),
    ("O=C(CCl)c1csc(N2CCCCC2)n1 [Z2469673977]", "UniProt:P0DTD1", "Avg", 64),
    ("O=C(CCl)N1CCN(c2ccccc2[N+](=O)[O-])CC1 [Z1562119284]", "UniProt:P0DTD1", "Avg", 26),
]

We now examine a further compound.
stdin: Given the entry OCCc1cnc(S)nc1 [Z2064274637] , report its measured Avg.
stdout: 36.1

====

Assayed target: SARS-CoV-2 3CL protease (Severe acute respiratory syndrome coronavirus 2)
Format: biochemical
Parameters: unit not given here
Measurement setup: Conc 20 µM; average response of dose-response curve
Attribute measured: Avg

# Compound, Avg
measured = [
    ("O=C(CCl)c1ccc(N2CCCC2=O)cc1 [Z221603842]", 62.2),
]

// each listed compound needs a value for Avg
1. O=C(NCCc1ccc(F)cc1)n1ccnc1 [Z235353843]
2. O=C(NCCC1=CCOCC1)c1cccnc1S [Z1510476385]
3. O=C(CCl)N1CCOC(c2ccc(F)cc2)C1 (stereo not shown) [Z1562122812]

stdout:
42.1
18.7
59.9

// each listed compound needs a value for Avg
1. O=C(CCl)c1ccc2c(c1)CCN(C(=O)C(F)(F)F)C2 [Z1723943157]
2. CN1Cc2cc(C(=O)CCl)ccc2NC1=O [Z2491497315]
3. Cc1ccccc1CN1CCN(C(=O)CCl)CC1 [Z208155076]

stdout:
1: 60.7; 2: 38.8; 3: 36.6

====

Experimental protocol: in vitro
Measurement setup: CD-1, mouse, microsomes, pH 7.4
Attribute measured: half-life (min)
Answers are plain numbers, in min.

stdin: Given the entry CCOC(=O)C=CC(CC1CCNC1=O)NC(=O)C(CC(C)C)NC(=O)C(NC(=O)OCc1ccccc1)C(C)OC(C)(C)C (centres unmarked) , report its measured half-life.
stdout: 7.3

====

Assayed target: UniProt P0DTD1
Assay type: biochemical
Parameters: unit not given here
Measurement setup: Conc 20 µM
Answer each item with its documented Avg.
Numbers only.

Solved entries (count: 5):
# Molecule, Avg
records = [
    ("O=C(NCC(CO)c1ccccc1)c1cccnc1S (stereo not drawn)", 19.9),
    ("NC(=O)CCc1ccc(C(=O)CCl)cc1", 49.5),
    ("CC(C)OC1CCC(NC(=O)c2cccnc2S)CC1 (stereo not drawn)", 32.4),
    ("Cn1cc(CNC(=O)c2cccnc2S)c(C(F)(F)F)n1", 26.9),
    ("CC(C)Cc1ncc(CNC(=O)c2cccnc2S)s1", 49.8),
]

We now examine a further molecule.
stdin: Given the entry O=C(NCCC(O)c1ccccc1)c1cccnc1S (stereo not drawn) , report its measured Avg.
stdout: 42.4

====

Assayed target: ACE1 (Homo sapiens, UniProt P12821)
Sequence (P12821 30-1261): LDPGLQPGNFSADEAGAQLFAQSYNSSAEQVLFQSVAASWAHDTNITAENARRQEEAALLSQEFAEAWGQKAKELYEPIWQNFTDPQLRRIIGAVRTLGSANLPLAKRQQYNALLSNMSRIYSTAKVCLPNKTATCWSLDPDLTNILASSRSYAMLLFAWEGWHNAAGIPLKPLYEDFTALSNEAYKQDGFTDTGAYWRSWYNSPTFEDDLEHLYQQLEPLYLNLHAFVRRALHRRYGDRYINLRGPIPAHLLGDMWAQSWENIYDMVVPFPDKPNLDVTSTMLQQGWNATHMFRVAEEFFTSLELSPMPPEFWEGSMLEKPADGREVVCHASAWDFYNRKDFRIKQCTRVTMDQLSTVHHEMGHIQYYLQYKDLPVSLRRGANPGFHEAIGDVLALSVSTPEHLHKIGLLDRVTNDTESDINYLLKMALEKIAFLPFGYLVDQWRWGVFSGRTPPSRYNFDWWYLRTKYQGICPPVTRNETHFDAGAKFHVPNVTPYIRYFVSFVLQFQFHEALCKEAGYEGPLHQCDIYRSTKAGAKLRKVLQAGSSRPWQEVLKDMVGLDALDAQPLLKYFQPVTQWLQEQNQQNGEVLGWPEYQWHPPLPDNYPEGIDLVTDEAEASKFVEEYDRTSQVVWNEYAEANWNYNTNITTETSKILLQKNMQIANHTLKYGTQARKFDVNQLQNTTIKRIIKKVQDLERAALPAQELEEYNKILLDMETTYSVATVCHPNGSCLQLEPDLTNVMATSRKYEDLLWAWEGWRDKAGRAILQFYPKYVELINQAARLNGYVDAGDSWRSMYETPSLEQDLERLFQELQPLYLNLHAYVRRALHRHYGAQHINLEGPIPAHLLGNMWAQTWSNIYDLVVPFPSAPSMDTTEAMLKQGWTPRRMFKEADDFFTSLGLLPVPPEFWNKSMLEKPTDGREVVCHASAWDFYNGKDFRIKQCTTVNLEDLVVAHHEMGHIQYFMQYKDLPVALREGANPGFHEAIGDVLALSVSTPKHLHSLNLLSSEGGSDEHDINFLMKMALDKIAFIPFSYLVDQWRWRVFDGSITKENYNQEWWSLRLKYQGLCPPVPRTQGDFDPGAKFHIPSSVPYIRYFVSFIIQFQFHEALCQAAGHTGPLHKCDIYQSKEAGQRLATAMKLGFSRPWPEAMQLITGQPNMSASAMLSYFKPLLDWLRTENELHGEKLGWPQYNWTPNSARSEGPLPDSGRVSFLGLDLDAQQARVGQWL
Experimental protocol: biochemical
pIC50: −log10 of the molar value.
Attribute measured: pIC50

# Compound, pIC50
rows = [
    ("CC(C)C[C@H](NC(=O)OCc1ccccc1Cl)C(=O)N[C@@H](C[C@@H]1CCNC1=O)C(O)S(=O)(=O)O (some centres unmarked) [EB54]", "< 4.00"),
]

We now examine a further compound.
stdin: Given the entry CC(C)C[C@H](NC(=O)OCc1cccc(C(F)(F)F)c1)C(=O)N[C@@H](C[C@@H]1CCNC1=O)C(O)S(=O)(=O)O (some centres unmarked) [NK01-63] , report its measured pIC50.
stdout: < 4.00

====

Assayed target: SARS-CoV-2 3CL protease (Severe acute respiratory syndrome coronavirus 2)
Type: biochemical
Measurement setup: dose-response curve fit, Figure S1 and S2
Attribute measured: IC50
Please state the number and follow it with the unit.

Solved entries (count: 10):
# Molecule, Assayed target, IC50
measured = [
    ("O=C(NCC1CCCCC1O)c1cccnc1S (stereo not shown) [Z1252265470]", "SARS-CoV-2 3CL protease (Severe acute respiratory syndrome coronavirus 2)", "25.5 µM"),
    ("O=C(NCC(CO)c1ccccc1)c1cccnc1S (stereo not shown) [Z1346056045]", "SARS-CoV-2 3CL protease (Severe acute respiratory syndrome coronavirus 2)", "32.4 µM"),
    ("Cn1cc(CNC(=O)c2cccnc2S)c(C(F)(F)F)n1 [Z1488388701]", "SARS-CoV-2 3CL protease (Severe acute respiratory syndrome coronavirus 2)", "25.7 µM"),
    ("Cc1cc(C(=O)CCl)c(C)n1-c1ccccn1 [Z126674012]", "SARS-CoV-2 3CL protease (Severe acute respiratory syndrome coronavirus 2)", "15.8 µM"),
    ("O=C(NCc1ncccc1F)c1cccnc1S [Z1499268500]", "SARS-CoV-2 3CL protease (Severe acute respiratory syndrome coronavirus 2)", "15 µM"),
    ("NC(=O)CCc1ccc(C(=O)CCl)cc1 [Z1203664423]", "SARS-CoV-2 3CL protease (Severe acute respiratory syndrome coronavirus 2)", "22 µM"),
    ("O=C(CCl)NC(=O)OCc1ccccc1 [Z108566700]", "SARS-CoV-2 3CL protease (Severe acute respiratory syndrome coronavirus 2)", "19 µM"),
    ("COC1(CNC(=O)c2cccnc2S)CCOCC1 [Z1483040147]", "SARS-CoV-2 3CL protease (Severe acute respiratory syndrome coronavirus 2)", "39.7 µM"),
    ("CCNC(=O)N1CCC(NC(=O)c2cccnc2S)C1 (stereo not shown) [Z1421663935]", "SARS-CoV-2 3CL protease (Severe acute respiratory syndrome coronavirus 2)", "28 µM"),
    ("COC(C)(C)CNC(=O)c1cccnc1S [Z1274680193]", "SARS-CoV-2 3CL protease (Severe acute respiratory syndrome coronavirus 2)", "14.2 µM"),
]

// each listed molecule needs a value for IC50
1. CC(C)Cc1ncc(CNC(=O)c2cccnc2S)s1 [Z1494348106]
2. Cc1nc(CCNC(=O)c2cccnc2S)sc1C [Z1432661577]
3. O=C(NCCC(O)c1ccccc1)c1cccnc1S (stereo not shown) [Z1275438373]
4. CCC(=O)N1CCC(NC(=O)c2cccnc2S)C1 (stereo not shown) [Z1429050837]
5. O=C(NCc1ccc(F)c(CO)c1)c1cccnc1S [Z1501229042]
6. CC(C)OC1CCC(NC(=O)c2cccnc2S)CC1 (stereo not shown) [Z1500153099]

stdout:
1. 18.8 µM
2. 20.8 µM
3. 20.2 µM
4. 42.3 µM
5. 19.9 µM
6. 37.9 µM
